Data provenance: ChEMBL document CHEMBL4619808

Parameter MBC: see the listing below.
# System: Bacillus subtilis
# method.summary: Microbicidal activity against Bacillus subtilis ATCC 6633 assessed as inhibition of colony growth incubated for 24 hrs followed by replating and further incubated for 24 hrs
# Assay type: functional
# run.parameters: ATCC 6633, 24 h
Your answer is read as µM, so omit the unit and give the number.

{"columns": ["smiles.representation", "assay.target", "quantity", "measured.result"],
 "data": [
  ["CC(=O)N[C@@H](CCCNC(=N)N)c1nc(C)sc1C(=O)N[C@@H](C)c1nc(C)sc1C(=O)N[C@@H](C)c1nc(C)sc1C(=O)N[C@@H](CCCNC(=N)N)c1nc(C)sc1C(=O)N[C@@H](C)c1nc(C)sc1C(=O)N[C@@H](C)c1nc(C)sc1C(=O)N[C@@H](CCCNC(=N)N)c1nc(C)sc1C(=O)N[C@@H](C)c1nc(C)sc1C(=O)N[C@@H](C)c1nc(C)sc1C(=O)N[C@@H](CCCNC(=N)N)c1nc(C)sc1C(=O)N[C@@H](C)c1nc(C)sc1C(=O)N[C@@H](C)c1nc(C)sc1C(N)=O", "Bacillus subtilis", "MBC", 0.5]
]}

As a next step, examine the compound that follows.
Look up MBC for this compound: CC(=O)N[C@@H](CCCNC(=N)N)c1nc(C)sc1C(=O)N[C@@H](C)c1nc(CCCNC(=N)N)sc1C(=O)N[C@@H](C)c1nc(C)sc1C(=O)N[C@@H](CCCNC(=N)N)c1nc(C)sc1C(=O)N[C@@H](C)c1nc(CCCNC(=N)N)sc1C(=O)N[C@@H](C)c1nc(C)sc1C(=O)N[C@@H](CCCNC(=N)N)c1nc(C)sc1C(=O)N[C@@H](C)c1nc(CCCNC(=N)N)sc1C(=O)N[C@@H](C)c1nc(C)sc1C(=O)N[C@@H](CCCNC(=N)N)c1nc(C)sc1C(=O)N[C@@H](C)c1nc(CCCNC(=N)N)sc1C(=O)N[C@@H](C)c1nc(C)sc1C(N)=O
0.8
